Each recorded value in this set is attributed to PubChem BioAssay AID2673.

- Experiment Summary: qHTS Multiplex Assay to Identify Dual Action Probes in a Cell Model of Huntington: Cytoprotection confirmation (ATP)
- Recorded Conditions: PC12 HttQ103 induced, ATP luminescence 40 h; series mostly up to 46.1 µM
Records with an inconclusive call do not appear. The source made the active and inactive calls. Calls follow the shape of the dose curve; as a rule, active = well fitted activation curve with a large enough effect; inconclusive = small, poorly fitted or top-dose-only effect; inactive = no such curve, though single readings can be large or run the other way.
Please state which outcome applies, choosing from yes for active, no for inactive

Field: example entries. Status: answers known.
Compound	Category Label
Cn1nnnc1Sc1ncnc2scc(-c3cccs3)c12	yes
C[C@@H]1CNCCN1S(=O)(=O)c1cccc2cnccc12	no
COc1ccc(C(=O)C(CN2CCOCC2)c2ccccc2)cc1 (stereo unspecified)	no

Inquiry: GET /call?item= COc1ccccc1-n1nnnc1S(=O)(=O)Cc1ccc(Cl)cc1 returns the recorded outcome of this test.
Reply text: no

Inquiry: Returns: the outcome recorded for Cn1nnnc1Sc1ncnc2scc(-c3cnc(N)nc3)c12 in this assay.
Reply text: yes

Inquiry: For this compound, state the assay outcome: CN(C)CCCSc1ccccc1NC(=O)/C=C\c1ccccc1
Reply text: no
